FYI, the data here is from PubChem BioAssay (NCI).

# System: RPMI-8226 leukemia
# ASSAY EXPLANATION: NCI-60 one-dose screen, 48 h
# CONDITION NOTES: 10 µM
About 83,000 compounds went through this panel and 20% of them were active in at least one assay; those are over-represented in the sample as a whole. Active and inactive are the calls of the source. The calls were made as follows: active = growth percent below 10; inactive = the rest.
One label from this list, please: active, inactive

Query: How was COc1cccc(-c2nc3sccn3c2-c2cccc(S(C)(=O)=O)c2)c1 classified in this test?
Response: inactive

Query: How was Clc1ccc(C2=NN=C3C(Cc4ccccc4)=Nc4ccccc4N3C2)cc1 classified in this test?
Response: inactive

Query: How was CCN1CCN(CCC(=O)Nc2cccc(-n3cc(-c4ccncc4)c(-c4ccc(Cl)c(OC)c4)n3)c2)CC1 classified in this test?
Response: active

Query: How was O=C(N/N=C/c1ccc([N+](=O)[O-])cc1)c1ccccc1Nc1cccc(C(F)(F)F)c1 classified in this test?
Response: inactive

Query: How was COc1cc(C2CC(c3ccccc3)=NN2C(C)=O)cc(OC)c1OC (stereo unspecified) classified in this test?
Response: inactive

Query: How was CN(C)CCC1(c2ccccc2)CCN(C)C1=O (stereo unspecified) classified in this test?
Response: inactive

Query: How was Cc1cc(C(C#N)c2ccc(Cl)cc2)c(Cl)cc1NC(=O)c1cc(I)cc(I)c1O (stereo unspecified) classified in this test?
Response: inactive

Query: How was NS(=O)(=O)Oc1ccc(-c2ccc3sccc3c2)cc1 classified in this test?
Response: inactive

Query: How was NS(=O)(=O)c1ccc(N2N=C(c3ccccc3)CCC2=O)cc1 classified in this test?
Response: inactive

Query: How was O=C1c2ccccc2C(=O)c2c1ccc(C(Br)Br)c2[N+](=O)[O-] classified in this test?
Response: active

Query: How was CCOC(=O)/C(=C(\C)N)C1CC(=O)NC1=O (stereo unspecified) classified in this test?
Response: inactive
